experiment: repetition of prior art forms and test of their properties (stability in water, phase stability); assay type: physicochemical; conditions: prior art processes repeated by the inventors; competitive stability test in water
measure: stability in water / phase stability of repeated prior art forms

>  <molecule>
Cc1ccc([C@@H]2O[C@H](CO)[C@@H](O)[C@H](O)[C@H]2O)cc1Cc1ccc(-c2ccc(F)cc2)s1 [Cangaliflozin Form B]

>  <result>
poor phase stability

$$$$
>  <molecule>
Cc1ccc([C@@H]2O[C@H](CO)[C@@H](O)[C@H](O)[C@H]2O)cc1Cc1ccc(-c2ccc(F)cc2)s1 [known canagliflozin]

>  <result>
not stable in water

$$$$
>  <molecule>
Cc1ccc([C@@H]2O[C@H](CO)[C@@H](O)[C@H](O)[C@H]2O)cc1Cc1ccc(-c2ccc(F)cc2)s1 [canagliflozin Form A]

>  <result>
not stable in water

$$$$
>  <molecule>
Cc1ccc([C@@H]2O[C@H](CO)[C@@H](O)[C@H](O)[C@H]2O)cc1Cc1ccc(-c2ccc(F)cc2)s1.O [canagliflozin hemihydrate Form hH1]

>  <result>
poor phase stability

$$$$
